B1: KCTD10 (parent)
chain: SSKEEQKLIATSNKPAVKLLYNRS

- Variants of: B1
- measurement-description: protein stability index of a GFP-peptide fusion (GPS, HEK-293T) (PSI 1-6); higher = more stable;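 also: lentivirally expressed fusions sorted by FACS into six bins by GFP to DsRed ratio, PSI derived from sequencing read proportions per bin multiplied by bin number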
- condition-info: c terminus: a fixed tail appended
measured-attribute: protein stability index
Just the number, please.

Examples with their reported protein stability index follow.
ordered_residues=SSKEEQKLIATANKPAVKLLYNRS experimental_value=3.89
ordered_residues=SSKEEQKLIATSNKPAVKRLYNRS experimental_value=4.29
ordered_residues=SSKEEQKLYATSNKPAVKLLYNRS experimental_value=4.41
ordered_residues=SSKEEQKLIATSNKPAVKLLYNRW experimental_value=2.6
ordered_residues=SSKEEQKLIATSNKPAVKLLYNCS experimental_value=3.76
ordered_residues=SSKEEQKLIATSNSPAVKLLYNRS experimental_value=4.24
ordered_residues=SSKEEQKLIATDNKPAVKLLYNRS experimental_value=4.52
ordered_residues=SSKEEQKLIATSNKPAWKLLYNRS experimental_value=3.39

// lookup protein stability index for SSKEEQKLICTSNKPAVKLLYNRS
3.88

// lookup protein stability index for SSKEEQKLIATSNKPAVKLLYNMS
3.35

// lookup protein stability index for SAKEEQKLIATSNKPAVKLLYNRS
4.54
